Hey, just so you know, these numbers are from ChEMBL document CHEMBL4049407.

# study.system: Furin (Homo sapiens, UniProt P09958)
# Sequence (P09958 whole entry): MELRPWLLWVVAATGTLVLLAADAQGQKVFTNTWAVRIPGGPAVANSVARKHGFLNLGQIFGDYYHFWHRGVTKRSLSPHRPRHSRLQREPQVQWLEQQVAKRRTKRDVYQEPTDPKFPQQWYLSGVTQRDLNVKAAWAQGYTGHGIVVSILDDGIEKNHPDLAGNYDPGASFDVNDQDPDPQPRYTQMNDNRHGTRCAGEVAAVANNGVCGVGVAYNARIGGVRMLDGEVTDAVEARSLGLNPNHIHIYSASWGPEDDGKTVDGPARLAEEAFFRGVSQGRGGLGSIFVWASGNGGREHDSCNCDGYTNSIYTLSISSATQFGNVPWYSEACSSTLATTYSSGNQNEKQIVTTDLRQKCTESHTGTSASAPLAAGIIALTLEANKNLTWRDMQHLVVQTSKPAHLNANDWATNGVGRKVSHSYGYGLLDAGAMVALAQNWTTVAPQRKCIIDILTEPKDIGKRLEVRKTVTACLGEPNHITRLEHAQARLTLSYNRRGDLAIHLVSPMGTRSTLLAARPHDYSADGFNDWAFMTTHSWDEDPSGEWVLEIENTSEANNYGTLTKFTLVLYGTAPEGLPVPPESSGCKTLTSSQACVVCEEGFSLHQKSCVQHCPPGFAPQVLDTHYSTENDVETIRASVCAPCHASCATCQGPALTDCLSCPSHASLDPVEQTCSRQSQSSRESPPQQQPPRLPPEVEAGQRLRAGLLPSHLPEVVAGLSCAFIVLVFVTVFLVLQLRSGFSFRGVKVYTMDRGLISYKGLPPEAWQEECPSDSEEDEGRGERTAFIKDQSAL
# test.details: Inhibition of recombinant human furin expressed in drosophila S2 cells using pyrGlu-Arg-Thr-Lys-Arg-7-amido-4-methylcoumarin as substrate after 60 mins by spectrofluorometry method
pKi: −log10 of the molar value. Peptide text beside a SMILES is read from it. * marks the point of attachment. NH(4-amidinobenzyl) = N=C(N)c1ccc(CN*)cc1
Classification field: enter yes for pKi values not below 8, no for values below it.

| compound | class.name |
| --- | --- |
| CC(=O)N[C@@H](CC(C)C)C(=O)N[C@@H](CC(C)C)C(=O)N[C@@H](Cc1c[nH]c2ccccc12)C(=O)N[C@@H](CC(C)C)C(=O)N[C@@H](CCCNC(=N)N)C(=O)N[C@H](C(=O)N[C@@H](CCCCN)C(=O)NCc1ccc(C(=N)N)cc1)C(C)C (Ac-LLWLRVK-{NH(4-amidinobenzyl)}) | no |
| CC(=O)N[C@@H](CC(C)C)C(=O)N[C@@H](CC(C)C)C(=O)N[C@@H](CCC(=O)O)C(=O)N[C@@H](CC(C)C)C(=O)N[C@@H](CCCNC(=N)N)C(=O)N[C@H](C(=O)N[C@@H](CCCCN)C(=O)NCc1ccc(C(=N)N)cc1)C(C)C (Ac-LLELRVK-{NH(4-amidinobenzyl)}) | no |
| CC(=O)N[C@@H](CC(C)C)C(=O)N[C@H](C(=O)N[C@@H](CC(C)C)C(=O)N[C@@H](CC(C)C)C(=O)N[C@@H](CCCNC(=N)N)C(=O)N[C@H](C(=O)N[C@@H](CCCCN)C(=O)NCc1ccc(C(=N)N)cc1)C(C)C)C(C)C (Ac-LVLLRVK-{NH(4-amidinobenzyl)}) | yes |
| CC(=O)N[C@@H](CC(C)C)C(=O)N[C@@H](CC(C)C)C(=O)N[C@@H](Cc1cnc[nH]1)C(=O)N[C@@H](CC(C)C)C(=O)N[C@@H](CCCNC(=N)N)C(=O)N[C@H](C(=O)N[C@@H](CCCCN)C(=O)NCc1ccc(C(=N)N)cc1)C(C)C (Ac-LLHLRVK-{NH(4-amidinobenzyl)}) | yes |
| CC(=O)N[C@@H](CC(C)C)C(=O)N[C@@H](CC(C)C)C(=O)N[C@@H](CC(C)C)C(=O)N[C@@H](CCC(=O)O)C(=O)N[C@@H](CCCNC(=N)N)C(=O)N[C@H](C(=O)N[C@@H](CCCCN)C(=O)NCc1ccc(C(=N)N)cc1)C(C)C (Ac-LLLERVK-{NH(4-amidinobenzyl)}) | no |
| CC(=O)N[C@@H](C)C(=O)N[C@@H](CC(C)C)C(=O)N[C@@H](CC(C)C)C(=O)N[C@@H](CC(C)C)C(=O)N[C@@H](CCCNC(=N)N)C(=O)N[C@H](C(=O)N[C@@H](CCCCN)C(=O)NCc1ccc(C(=N)N)cc1)C(C)C (Ac-ALLLRVK-{NH(4-amidinobenzyl)}) | yes |
| CC(=O)N[C@@H](CC(C)C)C(=O)N[C@@H](CC(C)C)C(=O)N[C@@H](CCC(N)=O)C(=O)N[C@@H](CC(C)C)C(=O)N[C@@H](CCCNC(=N)N)C(=O)N[C@H](C(=O)N[C@@H](CCCCN)C(=O)NCc1ccc(C(=N)N)cc1)C(C)C (Ac-LLQLRVK-{NH(4-amidinobenzyl)}) | yes |
| CC[C@H](C)[C@H](NC(C)=O)C(=O)N[C@@H](CC(C)C)C(=O)N[C@@H](CC(C)C)C(=O)N[C@@H](CC(C)C)C(=O)N[C@@H](CCCNC(=N)N)C(=O)N[C@H](C(=O)N[C@@H](CCCCN)C(=O)NCc1ccc(C(=N)N)cc1)C(C)C (Ac-ILLLRVK-{NH(4-amidinobenzyl)}) | yes |
| CC(=O)N[C@@H](CC(C)C)C(=O)N[C@@H](CC(C)C)C(=O)N[C@@H](CC(C)C)C(=O)N[C@@H](CO)C(=O)N[C@@H](CCCNC(=N)N)C(=O)N[C@H](C(=O)N[C@@H](CCCCN)C(=O)NCc1ccc(C(=N)N)cc1)C(C)C (Ac-LLLSRVK-{NH(4-amidinobenzyl)}) | yes |
| CC(=O)N[C@@H](CCC(N)=O)C(=O)N[C@@H](CC(C)C)C(=O)N[C@@H](CC(C)C)C(=O)N[C@@H](CC(C)C)C(=O)N[C@@H](CCCNC(=N)N)C(=O)N[C@H](C(=O)N[C@@H](CCCCN)C(=O)NCc1ccc(C(=N)N)cc1)C(C)C (Ac-QLLLRVK-{NH(4-amidinobenzyl)}) | yes |
| CC(=O)N[C@@H](CCCCN)C(=O)N[C@@H](CC(C)C)C(=O)N[C@@H](CC(C)C)C(=O)N[C@@H](CC(C)C)C(=O)N[C@@H](CCCNC(=N)N)C(=O)N[C@H](C(=O)N[C@@H](CCCCN)C(=O)NCc1ccc(C(=N)N)cc1)C(C)C (Ac-KLLLRVK-{NH(4-amidinobenzyl)}) | yes |
